Measured EC50 by item
# system-name: h5-HT2c (vsv) (Homo sapiens, UniProt P28335, I156V/I160V/N158S)
# Sequence (P28335 33-458 I156V/N158S/I160V limits assumed): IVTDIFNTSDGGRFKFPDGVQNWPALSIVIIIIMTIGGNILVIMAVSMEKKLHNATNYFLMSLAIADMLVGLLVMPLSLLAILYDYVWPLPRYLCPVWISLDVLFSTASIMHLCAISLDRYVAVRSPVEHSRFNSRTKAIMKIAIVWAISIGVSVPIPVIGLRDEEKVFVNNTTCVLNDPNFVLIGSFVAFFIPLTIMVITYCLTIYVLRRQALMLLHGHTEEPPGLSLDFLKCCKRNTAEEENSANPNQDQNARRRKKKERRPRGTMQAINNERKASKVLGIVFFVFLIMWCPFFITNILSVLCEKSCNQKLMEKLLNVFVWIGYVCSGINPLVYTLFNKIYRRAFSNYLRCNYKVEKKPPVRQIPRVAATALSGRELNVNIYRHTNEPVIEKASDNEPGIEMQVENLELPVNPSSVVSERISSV
# assay-overview: cell-based

Clc1cc2c(nc1N1CCOCC1)CCNCC2 | 176 nM
CC(C)(C)c1ccc2c(n1)CCNCC2 | 106 nM
CC(C)c1ccc2c(n1)C(C)CNCC2 (centres unmarked) | 295 nM
Brc1cc2c(nc1N1CCCCC1)CCNCC2 | 192 nM
[O-][S+]1CCN(c2ccc3c(n2)CCNCC3)CC1 | 5.1 nM
FC1(F)CCN(c2ccc3c(n2)CCNCC3)CC1 | 11.4 nM

Report EC50 for c1cc2c(nc1N1CCCCC1)CCNCC2 please.
10.6 nM

Again, but for CC1CNCCc2ccc(N3CCCCC3)nc21 (centres unmarked)
13.1 nM

Again, but for FC1CCN(c2ccc3c(n2)CCNCC3)CC1
7.9 nM

Again, but for c1cc2c(nc1N1CCOCC1)CCNCC2
63.9 nM

Again, but for c1cc2c(nc1N1CCCOCC1)CCNCC2
10.5 nM

Again, but for c1cc2c(nc1N1C3CCCC1CC3)CCNCC2
138 nM

Again, but for c1cc2c(nc1N1CCC3(CC1)OCCO3)CCNCC2
290 nM

Again, but for COc1nc2c(cc1Br)CCNCC2
64.1 nM

Again, but for C=C(C)c1ccc2c(n1)CCNCC2
79.1 nM

Again, but for c1cc2c(nc1N1CCSCC1)CCNCC2
2.3 nM

Again, but for CC(C)C1CNCCc2ccc(N3CCCCC3)nc21 (centres unmarked)
65.4 nM

Again, but for O=C1CCN(c2ccc3c(n2)CCNCC3)CC1
299 nM

Again, but for CC1CNCCc2ccc(N3CCC(F)CC3)nc21 (centres unmarked)
13.6 nM

Again, but for c1cc2c(nc1N1CCCCCC1)CCNCC2
10.2 nM

Again, but for CCN(CC)c1ccc2c(n1)CCNCC2
77.3 nM

Again, but for FC1(F)CCCN(c2ccc3c(n2)CCNCC3)CC1
24 nM

Again, but for C[C@@H]1CNCCc2ccc(N3CCCCC3)nc21
2.1 nM

Again, but for CC(C)N(C)c1ccc2c(n1)CCNCC2
85.4 nM
